# test-system: T1, EsCas13d, nuclease-dead (Eubacterium siraeum, UniProt B0MS50, R295A;H300A;R849A;H854A)
# T1 sequence: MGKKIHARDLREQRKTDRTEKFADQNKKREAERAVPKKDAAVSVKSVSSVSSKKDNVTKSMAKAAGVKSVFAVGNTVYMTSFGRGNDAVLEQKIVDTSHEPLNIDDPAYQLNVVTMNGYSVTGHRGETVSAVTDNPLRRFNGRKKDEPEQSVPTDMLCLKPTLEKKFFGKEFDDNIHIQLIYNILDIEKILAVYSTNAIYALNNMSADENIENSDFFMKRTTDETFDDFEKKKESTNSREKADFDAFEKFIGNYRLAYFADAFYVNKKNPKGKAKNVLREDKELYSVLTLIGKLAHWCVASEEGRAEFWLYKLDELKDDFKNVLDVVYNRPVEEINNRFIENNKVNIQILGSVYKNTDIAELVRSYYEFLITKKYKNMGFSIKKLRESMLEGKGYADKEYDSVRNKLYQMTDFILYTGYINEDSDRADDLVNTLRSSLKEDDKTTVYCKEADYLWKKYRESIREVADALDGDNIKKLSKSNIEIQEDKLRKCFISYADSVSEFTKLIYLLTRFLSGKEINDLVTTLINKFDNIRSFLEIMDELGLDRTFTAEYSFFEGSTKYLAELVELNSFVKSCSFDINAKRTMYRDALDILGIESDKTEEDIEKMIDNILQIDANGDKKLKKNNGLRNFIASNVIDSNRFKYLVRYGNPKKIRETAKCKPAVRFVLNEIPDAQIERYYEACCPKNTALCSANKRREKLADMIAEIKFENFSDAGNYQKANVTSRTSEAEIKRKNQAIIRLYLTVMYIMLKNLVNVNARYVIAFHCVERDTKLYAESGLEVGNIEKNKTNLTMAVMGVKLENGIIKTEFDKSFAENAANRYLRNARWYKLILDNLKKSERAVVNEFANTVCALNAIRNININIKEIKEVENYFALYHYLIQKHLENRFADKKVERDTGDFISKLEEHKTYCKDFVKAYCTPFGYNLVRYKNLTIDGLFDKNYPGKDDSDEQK
# measurement-description: crRNA (strand 1, pre-loaded); Mg2+; 40 mM Tris-HCl pH 7.5, 150 mM NaCl, 6 mM MgCl2, 1 mM DTT, 0.1% Tween-20, 0.2 mg/ml BSA; 25 C; 10 min per concentration, then washed
# particulars: tags: His6-TwinStrep-SUMO cleaved; N-terminal SNAP kept (SNAP-Surface 488); label: 3' end held by stalled T7 RNA polymerase
# Kd annotations
Numbers only; they are read as nM.

target 1 MT 5'PFS CAU 3'PFS CCG (mixed) RNA 1: CACCCGUGCAAAAAUGCAGGGGUCUAAAACUGAGCGGAUAACCUCUCUAUGG RNA 2: GGGAAUGGAUCCACAUCUACGAAUUCCAUCCAUAGAGAGGUUAUCCGCUCACCGAGAUCGGAAGAGCACACGU
23

We now examine a further binder.
Returns the measured Kd for the input binder. Input: target 1 insG 3' of 6,insA 3' of 4 (mixed) RNA 1: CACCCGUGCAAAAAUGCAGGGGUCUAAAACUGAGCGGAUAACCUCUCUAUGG RNA 2: GGGAAUGGAUCCACAUCUACGAAUUCGUACCAUAGAGAGGUUAUCCGGCAUCACCGAGAUCGGAAGAGCACACGU
6.9

// provenance: paper PMC10786891
